- measured.on: R155K mutant of the HCV NS3/4A 1b protease enzyme (Hepatitis C virus genotype 1b, UniProt P26663, R1181K)
- Construct: 10× stocks of NS3/4A protease enzyme from Bioenza (Mountain View, Calif.); purchased Bioenza (Mountain View, Calif.)
- assay: HCV Protease FRET Assay (IC50_APP), R155K mutant
- Type: biochemical
- assay.setup: apparent IC50, R155K mutant; read-out: IC50_APP, HCV R155K
pIC50: −log10 of the molar value.
property.label: pIC50

Solved entries:
input.smiles	result
C=C(C)C(=O)C[C@H](NC(=O)OC(C)(C)C)C(=O)N1C[C@H](Oc2nccc3cc(OC)ccc23)C[C@H]1C(=O)N[C@]1(C(=O)NS(=O)(=O)C2CC2)C[C@H]1CC	> 8.00
C=CC(=O)NC[C@H](NC(=O)CCCC[C@H]1SC[C@H]2NC(=O)N[C@H]21)C(=O)N1C[C@H](Oc2nccc3cc(OC)ccc23)C[C@H]1C(=O)N[C@]1(C(=O)NS(=O)(=O)C2CC2)C[C@H]1C=C	6.00 to 7.00

Requested field: pIC50. Item: C=C[C@@H]1C[C@]1(NC(=O)[C@@H]1C[C@@H](Oc2nccc3ccc(Br)cc23)CN1C(=O)[C@H](CCC(=O)/C(C)=C/C)NC(=O)OC(C)(C)C)C(=O)NS(=O)(=O)C1CC1
6.00 to 7.00

Given the entry C=CC(=O)N[C@@H](C(=O)N1C[C@H](Oc2nccc3cc(OC)ccc23)C[C@H]1C(=O)N[C@]1(C(=O)NS(=O)(=O)C2CC2)C[C@H]1C=C)C(C)C , report its measured pIC50.
7.00 to 8.00

Report pIC50 for C=CC(=O)NC[C@H](NC(=O)OC1CCCC1)C(=O)N1C[C@H](Oc2nccc3ccc(-c4cccs4)cc23)C[C@H]1C(=O)N[C@]1(C(=O)NS(=O)(=O)C2CC2)C[C@H]1C=C please.
5.00 to 6.00

Could you tell me which pIC50 is on file for C=CC(=O)N[C@H](C)C(=O)N1C[C@H](Oc2nccc3cc(OC)ccc23)C[C@H]1C(=O)N[C@]1(C(=O)NS(=O)(=O)C2CC2)C[C@H]1C=C ?
> 8.00

Entry C=C[C@@H]1C[C@]1(NC(=O)[C@@H]1C[C@@H](Oc2nccc3cc(OC)ccc23)CN1C(=O)[C@H](CCC(=O)C=C(C)C)NC(=O)OC(C)(C)C)C(=O)NS(=O)(=O)C1CC1 : reported pIC50 = ?
7.00 to 8.00

# query: pIC50 of entry C=C[C@@H]1C[C@]1(NC(=O)[C@@H]1C[C@@H](Oc2nccc3cc(OC)ccc23)CN1C(=O)[C@H](CCC(=O)/C(C)=C/C)NC(=O)OC(C)(C)C)C(=O)NS(=O)(=O)C1CC1
7.00 to 8.00

# pIC50 lookup, item C=C[C@@H]1C[C@]1(NC(=O)[C@@H]1C[C@@H](Oc2nccc3cc(OC)ccc23)CN1C(=O)[C@H](CC(=O)/C(C)=C/C)NC(=O)OC(C)(C)C)C(=O)NS(=O)(=O)C1CC1
7.00 to 8.00

GET /values?readout=pIC50&item= C=C[C@@H]1C[C@]1(NC(=O)[C@@H]1C[C@@H](Oc2nc3ccccc3nc2-c2cccs2)CN1C(=O)[C@H](CCC(=O)C=C(C)C)NC(=O)OC(C)(C)C)C(=O)NS(=O)(=O)C1CC1
6.00 to 7.00

What value of pIC50 has been recorded for this entry: C=C[C@@H]1C[C@]1(NC(=O)[C@@H]1C[C@@H](Oc2nccc3cc(OC)ccc23)CN1C(=O)[C@@H](C)NC(=O)CC)C(=O)NS(=O)(=O)C1CC1
5.00 to 6.00

Which pIC50 is reported for this molecule? C=CC(=O)N[C@H](CC(C)C)C(=O)N1C[C@H](Oc2nccc3cc(OC)ccc23)C[C@H]1C(=O)N[C@]1(C(=O)NS(=O)(=O)C2CC2)C[C@H]1C=C
7.00 to 8.00

Field request: pIC50 | item: CC[C@@H]1C[C@]1(NC(=O)[C@@H]1C[C@@H](Oc2nccc3cc(OC)ccc23)CN1C(=O)[C@H](CCC(=O)C=C(C)C)NC(=O)OC(C)(C)C)C(=O)NS(=O)(=O)C1CC1
6.00 to 7.00

pIC50 lookup needed for C=CCN(C[C@H](NC(=O)OC(C)(C)C)C(=O)N1C[C@H](Oc2nccc3cc(OC)ccc23)C[C@H]1C(=O)N[C@]1(C(=O)NS(=O)(=O)C2CC2)C[C@H]1C=C)C(=O)C=C , thanks.
6.00 to 7.00

Param item = C=CC(=O)NC[C@H](NC(=O)OC(C)(C)C)C(=O)N1C[C@H](Oc2nccc3cc(OC)ccc23)C[C@H]1C(=O)N[C@]1(C(=O)NS(=O)(=O)C2CC2)C[C@H]1C=C ; retrieve measured pIC50.
7.00 to 8.00

I would be grateful if you could share the reported pIC50 for C=CC(=O)NC[C@H](NC(=O)OC(C)(C)C)C(=O)N1C[C@H](Oc2nc3ccccc3nc2-c2cccs2)C[C@H]1C(=O)N[C@]1(C(=O)NS(=O)(=O)C2CC2)C[C@H]1C=C .
6.00 to 7.00

For the molecule C=C[C@@H]1C[C@]1(NC(=O)[C@@H]1C[C@@H](Oc2nccc3cc(OC)ccc23)CN1C(=O)[C@H](CCC(=O)/C=C/C1CCCC1)NC(=O)OC(C)(C)C)C(=O)NS(=O)(=O)C1CC1 , what pIC50 is on record?
7.00 to 8.00

Looking for the measured pIC50 of [2H]C([2H])([2H])C(=CC(=O)CC[C@H](NC(=O)OC(C)(C)C)C(=O)N1C[C@H](Oc2nccc3cc(OC)ccc23)C[C@H]1C(=O)N[C@]1(C(=O)NS(=O)(=O)C2CC2)C[C@H]1C=C)C([2H])([2H])[2H] , can you help?
7.00 to 8.00

Report pIC50 for C=C[C@@H]1C[C@]1(NC(=O)[C@@H]1C[C@@H](Oc2nccc3cc(OC)ccc23)CN1C(=O)[C@H](CCC(=O)/C=C\C(C)(C)C)NC(=O)OC(C)(C)C)C(=O)NS(=O)(=O)C1CC1 please.
6.00 to 7.00

----------
The following compounds are shown together with reported pIC50 values.
- measured.on: wild type HCV NS3/4A 1b protease enzyme (Hepatitis C virus genotype 1b, UniProt P26663)
- Construct: 10× stocks of NS3/4A protease enzyme from Bioenza (Mountain View, Calif.); purchased Bioenza (Mountain View, Calif.)
- assay: HCV Protease FRET Assay (IC50_APP), wild type
- Type: biochemical
pIC50: −log10 of the molar value.

Field request: pIC50 | item: C=C[C@@H]1C[C@]1(NC(=O)[C@@H]1C[C@@H](Oc2nccc3cc(OC)ccc23)CN1C(=O)[C@H](CCC(=O)C=C(C)C)NC(=O)OC(C)(C)C)C(=O)NS(=O)(=O)C1CC1 [Compound I-96]
> 8.00

Look up pIC50 for this compound: C=C[C@@H]1C[C@]1(NC(=O)[C@@H]1C[C@@H](Oc2nccc3cc(OC)ccc23)CN1C(=O)[C@@H](C)NC(=O)CC)C(=O)NS(=O)(=O)C1CC1 [I^R-100]
6.00 to 7.00

Would you kindly share the measured pIC50 for C=CC(=O)N(C)C[C@@H]1NC(=O)OCCC/C=C/c2ccc3ccnc(c3c2)O[C@@H]2C[C@@H](C(=O)N[C@]3(C(=O)NS(=O)(=O)C4CC4)C[C@H]3C=C)N(C2)C1=O [Compound I-83] ?
7.00 to 8.00

What measured pIC50 goes with C=C[C@@H]1C[C@]1(NC(=O)[C@@H]1C[C@@H]2CN1C(=O)[C@H](CCC(=O)C=C(C)C)NC(=O)OCCC/C=C/c1ccc3ccnc(c3c1)O2)C(=O)NS(=O)(=O)C1CC1 [Compound I-102] ?
> 8.00

----------
- measured.on: D168A mutant of the HCV NS3/4A 1b protease enzyme (Hepatitis C virus genotype 1b, UniProt P26663, D1194A)
- Construct: 10× stocks of NS3/4A protease enzyme from Bioenza (Mountain View, Calif.); purchased Bioenza (Mountain View, Calif.)
- assay: HCV Protease FRET Assay (IC50), D168A mutant
- Assay type: biochemical
- assay.setup: read-out: Comparative IC50 Values, D168A; biochemical assay
property.label: pIC50
Friendly reminder that pIC50 comes from taking -log10 of the concentration in mol/L.

Could you share which pIC50 value was measured for C=CC(=O)NC[C@H](NC(=O)OC(C)(C)C)C(=O)N1C[C@H](Oc2cc(-c3ccccc3)nc3cc(OC)ccc23)C[C@H]1C(=O)N[C@]1(C(=O)NS(=O)(=O)c2ccccc2)C[C@H]1C=C ?
7.35

----------
Recorded pIC50 by entry
- measured.on: D168A mutant of the HCV NS3/4A 1b protease enzyme (Hepatitis C virus genotype 1b, UniProt P26663, D1194A)
- Construct: 10× stocks of NS3/4A protease enzyme from Bioenza (Mountain View, Calif.); purchased Bioenza (Mountain View, Calif.)
- assay: HCV Protease FRET Assay (IC50), D168A mutant
- Format: biochemical
- assay.setup: read-out: Inhibition, HCV D168A; D168A enzyme, FRET assay
pIC50: −log10 of the molar value.

input.smiles	pIC50
C=C[C@@H]1C[C@]1(NC(=O)[C@@H]1C[C@@H](Oc2cc(-c3ccccc3)nc3cc(OC)ccc23)CN1C(=O)CNC(=O)C#CC)C(=O)NS(=O)(=O)c1ccccc1	5.00 to 6.00
C=CC(=O)NC[C@H](NC(=O)OC(C)(C)C)C(=O)N1C[C@H](Oc2cc(-c3ccccc3)nc3cc(OC)ccc23)C[C@H]1C(=O)N[C@]1(C(=O)O)C[C@H]1C=C	5.00 to 6.00
C=C[C@@H]1C[C@]1(NC(=O)[C@@H]1C[C@@H](Oc2cc(-c3ccccc3)nc3cc(OC)ccc23)CN1C(=O)[C@H](CCNC(=O)CCl)NC(=O)OC(C)(C)C)C(=O)NS(=O)(=O)c1ccccc1	7.00 to 8.00
C=CC(=O)NC[C@H](NC(=O)OC(C)(C)C)C(=O)N1C[C@H](Oc2cc(-c3ccccc3)nc3cc(OC)ccc23)C[C@H]1C(=O)N[C@]1(C(=O)NS(=O)(=O)C2CC2)C[C@H]1C=C	> 8.00

Look up pIC50 for this molecule: C=C[C@@H]1C[C@]1(NC(=O)[C@@H]1C[C@@H](Oc2cc(-c3ccccc3)nc3cc(OC)ccc23)CN1C(=O)CNC(=O)OC(C)(C)C)C(=O)NS(=O)(=O)C1CC1
6.00 to 7.00
